tested on: HT29 colon; test: NCI tumour cell line growth inhibition, 48 h
Observed property: TGI

Completed entries (count: 5):
compound=CNC(=S)N/N=C/c1ccc([N+](=O)[O-])s1 observed_property=TGI val="> 10 µM"
compound="Cc1ccc2c(c1)C(c1cccc3ccccc13)OC2=O (stereo unspecified)" observed_property=TGI val="> 100 µM"
compound=COc1cc(Cn2c(-c3nonc3N)nc3ccccc32)ccc1C observed_property=TGI val="7.3 µM"
compound="Cc1ccc(N=Nc2c(C)c(C#N)c(=S)n(C3OC(CO)C(O)C(O)C3O)c2-c2ccccc2)cc1 (stereo unspecified)" observed_property=TGI val="89.2 µM"
compound=O=c1[nH]nc(Cc2ccccc2)n1-n1cnnc1 observed_property=TGI val="> 100 µM"

Okay, now this compound:
// recorded TGI for "COc1ccccc1Nc1nc(NNC(=O)Cc2ccccc2)nc(NNC(=O)c2ccncc2)n1" : > 10 µM
